biological target: alpha2 receptor (guinea pig atrium) (Cavia porcellus); construct: isolated, superfused guinea pig left atrium; from tissue; host or cells: guinea pig left atrium (sympathetic nerve endings); assay: isolated, superfused guinea pig left atrium (prejunctional alpha2 agonism)
Structures can show the parent of a compound that is named as a salt.
Reported metric: pEC50
Field pEC50 (float): negative decimal logarithm of the concentration in molar.

// query pEC50 value for entry Clc1cccc(Cl)c1NC1=NCCN1 [CLONIDINE HYDROCHLORIDE]
7.77

====

target: alpha1 receptor (rabbit ear artery); assay: isolated perfused rabbit ear artery (postjunctional alpha1 agonism); conditions: isolated perfused rabbit ear artery; read-out: ED50 Alpha1 Rabbit Ear Artery
Counter-ions that a name gives are not always drawn.
Reported metric: EC50 (nM)
Write the number in nM without appending the unit.

// query EC50 value for entry CC(C)(C)c1cc(Cl)c(N=C2NCCN2)c(Cl)c1
30

Could you now look at the following compound, please?
// query EC50 value for entry Clc1cccc(Cl)c1NC1=NCCN1 [CLONIDINE HYDROCHLORIDE]
290

====

target: alpha3 (vascular postjunctional alpha2) receptor, dog saphenous vein (Canis lupus familiaris, UniProt A0A8I3Q7S8); construct: the saphenous vein is located and cleaned of connective tissue; from tissue; host or cells: saphenous vein rings of mongrel dogs
Sequence (A0A8I3Q7S8 1-427): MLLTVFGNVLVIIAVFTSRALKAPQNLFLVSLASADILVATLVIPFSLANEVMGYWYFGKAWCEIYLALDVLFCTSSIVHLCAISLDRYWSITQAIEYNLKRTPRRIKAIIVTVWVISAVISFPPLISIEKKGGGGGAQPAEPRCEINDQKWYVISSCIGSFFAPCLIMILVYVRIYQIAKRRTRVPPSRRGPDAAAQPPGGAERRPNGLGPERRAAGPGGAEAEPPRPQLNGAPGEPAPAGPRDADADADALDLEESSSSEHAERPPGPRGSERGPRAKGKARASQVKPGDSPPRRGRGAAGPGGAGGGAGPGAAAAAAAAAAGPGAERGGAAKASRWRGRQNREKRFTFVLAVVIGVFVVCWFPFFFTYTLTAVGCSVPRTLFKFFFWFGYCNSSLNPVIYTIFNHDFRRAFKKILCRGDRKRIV
Reported metric: EC50 (nM)
Write the number in nM without appending the unit.

// query EC50 value for entry CC(C)(C)c1cc(Cl)c(N=C2NCCN2)c(Cl)c1 [COMPOUND I]
26

====

target: alpha2 receptor (guinea pig atrium) (Cavia porcellus, UniProt Q60474); construct: isolated, superfused guinea pig left atrium; from tissue; host or cells: guinea pig left atrium (sympathetic nerve endings); assay: isolated, superfused guinea pig left atrium (prejunctional alpha2 agonism); settings: isolated superfused guinea pig left atrium; read-out: ED50 Alpha2 Guinea Pig Atrium
Sequence (Q60474 whole entry, the tested form may be a part): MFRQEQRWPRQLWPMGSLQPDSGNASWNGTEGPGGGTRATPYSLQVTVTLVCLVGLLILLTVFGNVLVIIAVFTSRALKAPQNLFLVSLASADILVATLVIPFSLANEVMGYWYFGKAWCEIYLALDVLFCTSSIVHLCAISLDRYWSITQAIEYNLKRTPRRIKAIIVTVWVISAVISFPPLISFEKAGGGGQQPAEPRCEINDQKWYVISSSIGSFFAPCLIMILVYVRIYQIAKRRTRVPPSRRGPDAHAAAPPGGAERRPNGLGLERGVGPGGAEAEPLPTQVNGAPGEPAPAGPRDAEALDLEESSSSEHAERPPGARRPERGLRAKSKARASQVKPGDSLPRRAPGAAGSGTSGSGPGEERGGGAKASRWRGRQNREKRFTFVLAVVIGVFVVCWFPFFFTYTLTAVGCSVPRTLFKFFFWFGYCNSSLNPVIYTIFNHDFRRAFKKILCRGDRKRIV
Reported metric: EC50

// query EC50 value for entry CC(C)(C)c1cc(Cl)c(N=C2NCCN2)c(Cl)c1
790 nM

Reference source: patent US4444782A
